Experiment: ESI positive response factor (isotope-corrected peak area per molar concentration) in SFC/ESI/HRMS (area units per M); higher = higher ionization efficiency;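 note: standards in acetonitrile/water run in triplicate on a zwitterionic HILIC column, CO2–methanol gradient containing 20 mmol/L ammonium acetate, postcolumn makeup flow, Orbitrap full-scan detection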
Settings: 0.0175 µM
Here the recorded ESI positive response factor is given for each entry.
Give the figure by itself; no unit, no explanation.

Before answering, review these 3 worked examples.
COc1cc(Cc2cnc(N)nc2N)cc(OC)c1OC [Trimethoprim] | 2.88e+17
CCCCC(CC)CNCC(CC)CCCC (stereo not given) [Bis(2-ethylhexyl)amine] | 8.07e+17
COC(=O)N(OC)c1ccccc1COc1ccn(-c2ccc(Cl)cc2)n1 [Pyraclostrobin] | 6.62e+17

Now consider the entry below.
[Q] Bench note: what ESI positive response factor did Cc1ccc(NC(=O)N(C)C)cc1Cl [Chlortoluron] show?
[A] 1.29e+17
